ASSAY_METHOD_TEXT: protease stability score; higher = more stable; yeast display proteolysis, trypsin and chymotrypsin;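 note: relative to predicted unfolded state with 0 unfolded-like and 1 meaning tenfold more protease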
ASSAY_ENDPOINT: protease stability score

Take a look at these entries with their results.
| SEQUENCE_INPUT | protease stability score |
| --- | --- |
| DEERKELEEALRELKHSWETGDWRSLSEMADPNVLLKQGDFEYHGRELFLEFMRHLIEHLGIKHVEIRDMKIFENRVDMDVIIRFNGQTTRIQIILVKFNGRWFIKSVIIR | 2.02 |
| DEEEKHLRDMMEIVIKLFMTGDWDAFHEMADPDVKFQVDVGDKHIHRHGREEVVEELIRLLEHWRVRNIRIHDIKLIGDKLVVEGRWETSYGDKSHDEDVELIVIVVDGKIKKVRIIIR | 2.72 |
| DEEDELLMKVLTEWFHALRTGDEEKLDELADPNVRIEIGDKELHGMEVWQEYLRRYDHDRQDKVHFRTHEKQGNKLILDVEEDVVIEVNGKRIRTHVRSEIILVKINGRWVFTSIIVH | 1.34 |
| SEDETHFKHMWKLILDTSITGNEELLKTLFDPHYRLSVDGVEFHGREALRYWLDRVDHVEDHRIKSFELQGDKIYMNGESKTQQGDKTHSHDIHIFTKKIDGQWVIHSLHVR | 1.16 |
| TERDEHIEEMTDEWIELLFTGDEESLKRLADPDMRVNFNGVEIHGMHNFMRWVLHVLEHWRIEVKIHHKEVQGDKIRVELKQNIHFNGRDIHRDNREHIFVVNGVNKHVILIYR | 1.43 |

Look up protease stability score for this sequence: TDERDRYKHFLHLFRHLIKTGDEDVLANNADPHVKFHIHIGDKEREHHGMESMVKIFKEWRIHHLHIESFDVQGDKLIALVHVDGIINGRHHSTTVNIILTFVNGREKEVNIHLT
1.74
